Target: T1, human Siglec15-Fc fusion protein (human, UniProt Q6ZMC9 20-263)
T1 construct: Bought protein (Acro #SG5-H5253 is named for the selection); also called recombinant Siglec 15-Fc fusion protein (Acro #SG5-H5253); human Siglec15-Fc protein; not shown: Fc part of the bought fusion protein
T1 sequence (looked up): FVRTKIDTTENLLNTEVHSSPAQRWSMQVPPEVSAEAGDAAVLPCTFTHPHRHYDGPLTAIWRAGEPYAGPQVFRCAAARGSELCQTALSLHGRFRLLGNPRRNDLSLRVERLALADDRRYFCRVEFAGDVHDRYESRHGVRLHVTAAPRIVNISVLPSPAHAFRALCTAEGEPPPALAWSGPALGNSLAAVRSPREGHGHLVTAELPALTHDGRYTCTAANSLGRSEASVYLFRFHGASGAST
Experiment: SPR Biacore T200; Siglec15-Fc captured on Protein A chip, scFv as analyte
Label 1 for high-side kon (at or above 50000 M⁻¹ s⁻¹) and 0 for low-side kon (below it).

Field: example entries. Status: answers known.
1) 2020EP032-A08 scFv (scFv, V domains shown, Tested as a single-chain scFv made in E. coli with a C-terminal flag and 6x His tag) VH: QVQLQQWGAGLLKPSETLSLTCAVYGGSFSGYYWSWIRQPPGKGLEWIGEINHSGSTNYNPSLKSRVTISVDTSKNQFSLKLSSVTAADTAVYYCARGVYYYDSSGPRDYFDYWGQGTLVTVSS VL: DIVMTQSPSSLSASVGDRVTITCQASQDISNYLNWYQQKPGKAPKLLIYDASNLKTGVPSRFSGSGSGTDFTFTITSLQPEDIGTYFCQQYGNLPYTFGQGTKLEIK
0
2) 2019EP47-A05 scFv (scFv, V domains shown, Tested as a single-chain scFv made in E. coli with a C-terminal flag and 6x His tag) VH: QMQLVQSGAEVKKPGSSVKVSCKASGGTFSSYAISWVRQAPGQGLEWMGRIIPILGIANYAQKFQGRVTITADKSTSTAYMELSSLRSEDTAVYYCAVNTYYYDSSGYYYEYFDYWGQGTLVTVSS VL: EIVLTQSPSSLSASVGDRVTITCQASQHINNHLNWYQQKPGKGPKLLIYDVSNLEAGVPSRFSASGSGTDFSFTISSLQPEDFATYYCQQYDSLPLTFGQGTKVEVK
0
3) 2020EP032-B03 scFv (scFv, V domains shown, Tested as a single-chain scFv made in E. coli with a C-terminal flag and 6x His tag) VH: QVQLQQWGAGLLKPSETLSLTCAVYGGSFSGYYWSWIRQPPGKGLEWIGEINHSGSTNYNPSLKSRVTISVDTSKNQFSLKLSSVTAADTAVYYCARGPLRKYYDFWSGSRNYYYYGMDVWGQGTTVTVSS VL: QPVLTQDPAVSVALGQTVRITCQGDSLRSNYASWYQLKPGQAPVLVIYDKNNRPSGIPDRFSGSNSGNTASLTIAGAQAEDEADYYCTSRDSSGTVFGGGTKLTVL
1
4) 2020EP032-H11 scFv (scFv, V domains shown, Tested as a single-chain scFv made in E. coli with a C-terminal flag and 6x His tag) VH: EVQLVESGGGLVKPGGSLRLSCAASGFTFSSYSMNWVRQAPGKGLEWVSSISSSSSYIYYADSVKGRFTISRDNAKNSLYLQMNSLRAEDTAVYYCARDYRGYSGQNYYGMDVWGQGTTVTVSS VL: QSALTQPPSVSAAPRQKVTISCSGSSSNIGNNDVSWYQQLPGTVPKLLIYDNNKRPSGIPDRFSGSKSGTSASLGITGLQTGDEADYYCGVWDSSLSGYVFGTGTKVTVL
1

Consider the additional binder presented here.
Req: # bool: kon of 2019EP47-A10 scFv (scFv, V domains shown, Tested as a single-chain scFv made in E. coli with a C-terminal flag and 6x His tag) VH: QMQLVQSGGGVVQPGRSLRLSCAASGFTFSSYGMHWVRQAPGKGLEWVAVISYDGSNKYYADSVKDRFTISRDNSKNTLYLQMNSLRAEDTAVYYCAKDIVGDSGSYPIYYYYGMDVWGQGTTVTVSS VL: SQSALTQPHSVSESPGKTVTISCTRSSGSIASNYVQWYQQRPGSAPSTVIYEDNQRPSGVPDRFSGSVDISSNSASLTISGLQTEDEADYYCQSYDNDNMVFGGGTKLTVL >= 50000 M⁻¹ s⁻¹
Resp: 0
